B1: TRIM39 (parent)
chain: YPCVLATEGFTSGRHYWEVEVGDK

variants of: B1; assay: protein stability index of a GFP-peptide fusion (GPS, HEK-293T) (PSI 1-6); higher = more stable; details: c terminus: a fixed tail appended;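 also: lentivirally expressed fusions sorted by FACS into six bins by GFP to DsRed ratio, PSI derived from sequencing read proportions per bin multiplied by bin number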
measure_name: protein stability index

Example results:
F10I	2.15
R14L	2.45
H15T	2.17
G9I	1.05

# protein stability index lookup, item C3K
1.48

If you can, please state the reported protein stability index value of P2G .
2.58

May I ask what protein stability index has been recorded for G9H ?
1.6

Which protein stability index is reported for this variant? Y16S
1.75

I'd like to know its protein stability index. The variant in question is R14D
2.66

Quick one: protein stability index of C3I ?
2.41

What value of protein stability index has been recorded for this entry: E18W
2.2
